System: SF-268
Experiment: NCI tumour cell line growth inhibition, 48 h
Calls of active or inactive are those of the source. Cut-off read from the data, not from the text of the source: active = GI50 up to about 1.1 µM and inactive = higher.
Assign GI50 to each entry below.

stdin: Any idea what GI50 was measured for `Cc1cccc(C(C)C)c1NC(=O)/C(Cc1c([N+](=O)[O-])cccc1[N+](=O)[O-])=N/NC(=O)CC#N` ?
stdout: > 100 µM (inactive)

stdin: // returns reported GI50 for input O=C1CCCc2cc3c(cc21)CC1(C3)Cc2ccc3c(c2C1)C(=O)CCC3 (stereo unspecified)
stdout: 21.9 µM (inactive)

stdin: Please give the measured GI50 for this molecule: `O=C1c2ccccc2-n2c1nc1ccccc1c2=O`
stdout: 19.9 µM (inactive)

stdin: What value of GI50 has been reported for the following molecule? `O=C1C=Cc2c(Br)sc(Br)c21`
stdout: 30.5 µM (inactive)

stdin: Please look up its GI50: `CC12CC(Br)(Br)C(=O)C3C1CCCC32`
stdout: 10.2 µM (inactive)

stdin: Could you share which GI50 value was measured for `CCOC(=O)C1=C(C(=O)OCC)SC2(S1)C(C(=O)OCC)=C(C(=O)OCC)Sc1c2ssc1=O` ?
stdout: 1.97 µM (inactive)
